DGKα (Homo sapiens (Human), UniProt P23743): reported IC50 for various compounds. Also: full length DGKα 7.5 nM.
Sequence (P23743 whole entry): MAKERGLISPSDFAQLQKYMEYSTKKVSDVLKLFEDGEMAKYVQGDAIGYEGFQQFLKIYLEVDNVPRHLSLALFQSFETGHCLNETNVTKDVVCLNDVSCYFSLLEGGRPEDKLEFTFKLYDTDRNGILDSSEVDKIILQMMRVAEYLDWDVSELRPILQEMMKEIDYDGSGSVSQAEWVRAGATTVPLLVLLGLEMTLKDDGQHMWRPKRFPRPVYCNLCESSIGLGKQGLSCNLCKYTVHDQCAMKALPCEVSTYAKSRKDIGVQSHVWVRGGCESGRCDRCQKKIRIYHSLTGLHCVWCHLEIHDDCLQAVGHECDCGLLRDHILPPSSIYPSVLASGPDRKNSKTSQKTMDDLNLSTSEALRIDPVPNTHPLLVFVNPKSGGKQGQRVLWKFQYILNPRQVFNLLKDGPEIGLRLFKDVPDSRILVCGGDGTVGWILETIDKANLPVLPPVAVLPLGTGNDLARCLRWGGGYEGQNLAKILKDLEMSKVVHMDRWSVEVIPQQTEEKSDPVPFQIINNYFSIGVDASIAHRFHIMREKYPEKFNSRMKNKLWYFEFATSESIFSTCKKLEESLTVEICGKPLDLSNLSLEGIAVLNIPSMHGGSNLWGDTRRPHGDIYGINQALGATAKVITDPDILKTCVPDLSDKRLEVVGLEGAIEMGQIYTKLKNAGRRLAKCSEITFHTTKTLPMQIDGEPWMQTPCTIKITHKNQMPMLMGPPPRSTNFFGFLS
Reply numerically in µM, unit not repeated.

Solved entries (count: 2):
compound	value_units	IC50
CC[C@H]1CN(C(C)c2ccc(C(=O)N3CCC(OC)CC3)cc2)[C@H](CC)CN1c1cc(=O)n(C)c2cn(CC#N)nc12 (single isomer, unassigned) [Compound A194a]	µM	0.291
CC[C@H]1CN(C(C)c2ccc(C(=O)N(C)CCOC)cc2)[C@H](CC)CN1c1cc(=O)n(C)c2cn(CC#N)nc12 (single isomer, unassigned) [Compound A195a]	µM	0.774

Ask: What reported IC50 corresponds to CC[C@H]1CN(C(C)c2ccn3ncc(F)c3n2)[C@H](CC)CN1c1nc(=O)n(C)c2cn(CC#N)nc12 (single isomer, unassigned) [Compound A164a] on DGKα (Homo sapiens (Human), UniProt P23743)?
Result: 7.3

Ask: Also CC[C@H]1CN(C(C)c2ccc(COC3CCOC3)cc2)[C@H](CC)CN1c1cc(=O)n(C)c2cn(CC#N)nc12 (stereo partly drawn) [Compound A17] , if possible.
Result: 0.343

Ask: Here is the next compound: CC[C@H]1CN(C(C)c2cc(F)c(CN3CCS(=O)(=O)CC3)c(F)c2)[C@H](CC)CN1c1cc(=O)n(C)c2cn(CC#N)nc12 (stereo partly drawn) [Compound A5]
Result: 0.497

Ask: Next: CC[C@H]1CN(C(C)c2ccc(C3CC3)nc2F)[C@H](CC)CN1c1cc(=O)n(C)c2cn(CC#N)nc12 (single isomer, unassigned) [Compound A45b]
Result: 0.728

Ask: Same thing, different compound: CC[C@@H]1CN(c2cc(=O)n(C)c3cn(CC#N)nc23)[C@@H](C)CN1C(C)c1ccc2nc(C)sc2c1F (single isomer, unassigned) [Compound A104a]
Result: 3.15

Ask: Same lookup for CC[C@H]1CN(C(C)c2ccc(C(=O)N(C)CCOC)cc2)[C@H](CC)CN1c1cc(=O)n(C)c2cn(CC#N)nc12 (single isomer, unassigned) [Compound A195b] , please.
Result: 4.21

Ask: Next up: CC[C@@H]1CN(c2cc(=O)n(C)c3cn(CC#N)nc23)[C@@H](C)CN1C(C)c1ccc2ncsc2c1 (single isomer, unassigned) [Compound A92b]
Result: 1.02
